Entries and their logD values follow.
Test Details: Lipophilicity, log D of the compound
Assay type: physicochemical
Condition Notes: octanol/water
Could you keep your reply to the number by itself?

Example entries and their recorded answers appear below.
{"columns": ["Line Notation", "logD"],
 "data": [
  ["CC(C)CNc1nc(Cc2ccccc2)cc2c1CCNCC2", 1.7],
  ["CNc1nc(Cc2ccccc2)cc2c1CCNCC2", 0.4],
  ["CCCNc1nc(Cc2ccccc2)cc2c1CCNCC2", 1],
  ["c1ccc(Cc2cc3c(cn2)CCNCC3)cc1", 0.5],
  ["c1ccc(Cc2cc3c(c(NCC4CC4)n2)CCNCC3)cc1", 1.2]
]}

Name the recorded logD of the item CC(C)Nc1nc(Cc2ccccc2)cc2c1CCNCC2 in your answer.
1

Name the recorded logD of the item CN(C)c1nc(Cc2ccccc2)cc2c1CCNCC2 in your answer.
0.6

Name the recorded logD of the item c1ccc(CNc2nc(Cc3ccccc3)cc3c2CCNCC3)cc1 in your answer.
1.7

Name the recorded logD of the item CCNc1nc(Cc2ccccc2)cc2c1CCNCC2 in your answer.
0.6
